Target: hOGA (Homo sapiens)
Construct: endogenous in cells; host or cells: HEK293 cells inducible for P301L mutant human Tau (isoform 2N4R)
Sequence (O60502 1-916): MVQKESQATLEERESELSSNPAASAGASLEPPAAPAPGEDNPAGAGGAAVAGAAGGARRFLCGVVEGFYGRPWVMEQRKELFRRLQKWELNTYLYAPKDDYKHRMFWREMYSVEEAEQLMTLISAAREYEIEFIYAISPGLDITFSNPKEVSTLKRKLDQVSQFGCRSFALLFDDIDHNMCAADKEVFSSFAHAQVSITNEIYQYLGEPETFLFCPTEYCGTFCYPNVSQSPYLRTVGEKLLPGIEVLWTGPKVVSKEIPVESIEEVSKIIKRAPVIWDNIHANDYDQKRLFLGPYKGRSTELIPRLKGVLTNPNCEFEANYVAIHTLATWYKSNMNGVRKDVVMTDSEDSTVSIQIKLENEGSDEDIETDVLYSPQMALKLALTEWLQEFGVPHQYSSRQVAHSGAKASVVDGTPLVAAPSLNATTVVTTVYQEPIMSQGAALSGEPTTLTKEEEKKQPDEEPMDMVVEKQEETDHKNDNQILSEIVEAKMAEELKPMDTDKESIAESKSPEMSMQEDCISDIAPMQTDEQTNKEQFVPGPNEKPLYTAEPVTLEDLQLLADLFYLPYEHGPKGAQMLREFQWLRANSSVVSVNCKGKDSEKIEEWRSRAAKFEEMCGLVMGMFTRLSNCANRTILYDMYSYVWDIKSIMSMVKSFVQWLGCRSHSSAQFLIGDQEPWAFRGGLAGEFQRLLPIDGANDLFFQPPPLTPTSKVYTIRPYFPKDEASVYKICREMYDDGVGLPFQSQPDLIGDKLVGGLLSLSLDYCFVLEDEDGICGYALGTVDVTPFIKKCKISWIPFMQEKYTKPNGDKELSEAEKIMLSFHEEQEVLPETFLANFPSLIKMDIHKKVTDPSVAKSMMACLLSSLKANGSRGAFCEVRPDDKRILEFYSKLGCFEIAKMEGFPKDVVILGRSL
Assay: OGA cellular assay (ICC detection of O-GlcNAcylated proteins in HEK293 cells inducible for P301L mutant human Tau)
Format: cell-based
Conditions: Cellular hOGA; pEC50, Table 5; HEK293 P301L Tau cells, 6 hours incubation, O-GlcNAcylation readout
measuredAttribute: EC50

INSERT INTO assay_data (compound, assaytarget, result) VALUES
  ('Cc1c(C(F)(F)F)nn(C)c1Nc1nccc2c1ncn2CC(=O)N(C)C [Compound 39]', 'hOGA (Homo sapiens)', '> 1000 nM'),
  ('Cc1cc(C(F)(F)F)cc(C)c1Nc1nccc2c1ncn2CC(=O)N(C)C [Compound 61]', 'hOGA (Homo sapiens)', '107 nM');

What measured EC50 goes with Cc1nn(-c2ccc(F)cn2)c(C)c1Nc1nccc2c1ncn2CC(=O)N(C)C [Compound 32] ?
> 1000 nM
